- measurementTarget: integrin α4β1 (Jurkat cells) binding with recombinant human VCAM-1 (Homo sapiens, UniProt P05556+P13612)
- Construct: cell strain Jurkat (ATCC TIB-152) of human T cells, known to express integrin α4β1; endogenous in cells
- testSummary: VCAM antagonistic activity (VCAM-1/α4β1 binding assay), Jurkat cell adhesion
- appliedConditions: read-out: VCAM/α 4 β 1 antagonistic activity to integrin (IC50)
metricName: IC50

Input COc1ccc(NNC(=O)[C@H]2CC[C@H](C(=O)N[C@@H](Cc3ccc(NC(=O)c4snnc4-c4ccccc4)cc3)C(=O)O)CC2)cc1 [Example 46] . Output IC50: 5 to 25 µM

Input O=C(O)[C@H](Cc1ccc(OCc2c(Cl)cccc2Cl)cc1)NC(=O)[C@H]1CC[C@H](C(=O)NNc2ccccc2)CC1 [Example 3] . Output IC50: 25 to 50 µM

Input O=C(Nc1ccc(C[C@H](NC(=O)[C@H]2CC[C@H](C(=O)O)CC2)C(=O)O)cc1)c1snnc1-c1ccccc1 [Example 45] . Output IC50: 1 to 5 µM

Input COc1ccc(NNC(=O)[C@H]2CC[C@H](C(=O)N[C@@H](Cc3ccc(-c4c(OC)cccc4OC)cc3)C(=O)O)CC2)cc1 [Example 51] . Output IC50: 1 to 5 µM

Input COc1cccc(OC)c1-c1ccc(C[C@H](NC(=O)[C@H]2CC[C@H](C(=O)O)CC2)C(=O)O)cc1 [Example 50] . Output IC50: 1 to 5 µM

Input COc1ccc(NNC(=O)[C@H]2CC[C@H](C(=O)N[C@@H](Cc3ccc(OCc4c(Cl)cccc4Cl)cc3)C(=O)O)CC2)cc1 [Example 14] . Output IC50: 1 to 5 µM

Input O=C(O)[C@H](Cc1ccc(OCc2c(Cl)cccc2Cl)cc1)NC(=O)[C@H]1CC[C@H](C(=O)O)CC1 [Example 2] . Output IC50: 5 to 25 µM

====

- measurementTarget: integrin α4β7 (RPMI-8866 cells) binding with recombinant human VCAM-1 (Homo sapiens, UniProt P13612+P26010)
- Construct: lymphoma cell strain RPMI-8866 of human B cells, known to express integrin α4β7; endogenous in cells
- Sequence (P13612 34-1032): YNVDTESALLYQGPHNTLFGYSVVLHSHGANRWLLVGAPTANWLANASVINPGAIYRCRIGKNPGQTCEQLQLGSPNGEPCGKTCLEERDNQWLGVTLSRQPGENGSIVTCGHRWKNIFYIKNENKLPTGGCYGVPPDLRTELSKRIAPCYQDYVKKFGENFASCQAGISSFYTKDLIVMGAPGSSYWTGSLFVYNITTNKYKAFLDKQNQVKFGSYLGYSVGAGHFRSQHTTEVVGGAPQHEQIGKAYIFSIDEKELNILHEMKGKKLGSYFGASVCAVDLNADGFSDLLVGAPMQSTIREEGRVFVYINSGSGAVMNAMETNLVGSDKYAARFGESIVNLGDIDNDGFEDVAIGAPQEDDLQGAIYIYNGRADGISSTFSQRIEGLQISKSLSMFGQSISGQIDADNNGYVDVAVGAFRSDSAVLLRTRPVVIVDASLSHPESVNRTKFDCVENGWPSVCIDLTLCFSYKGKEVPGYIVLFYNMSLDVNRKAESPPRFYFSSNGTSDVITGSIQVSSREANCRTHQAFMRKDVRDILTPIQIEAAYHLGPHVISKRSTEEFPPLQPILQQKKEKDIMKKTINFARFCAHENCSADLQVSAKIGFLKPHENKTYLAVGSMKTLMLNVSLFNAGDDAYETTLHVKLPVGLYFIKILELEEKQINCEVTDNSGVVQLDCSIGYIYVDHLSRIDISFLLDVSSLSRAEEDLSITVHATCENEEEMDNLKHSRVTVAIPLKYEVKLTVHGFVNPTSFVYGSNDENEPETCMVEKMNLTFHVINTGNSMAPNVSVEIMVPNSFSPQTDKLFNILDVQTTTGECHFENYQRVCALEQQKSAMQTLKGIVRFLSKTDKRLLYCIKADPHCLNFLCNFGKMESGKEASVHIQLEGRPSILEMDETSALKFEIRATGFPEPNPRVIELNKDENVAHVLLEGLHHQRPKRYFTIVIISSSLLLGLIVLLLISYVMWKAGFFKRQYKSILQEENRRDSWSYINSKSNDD
- Sequence (P26010 20-798): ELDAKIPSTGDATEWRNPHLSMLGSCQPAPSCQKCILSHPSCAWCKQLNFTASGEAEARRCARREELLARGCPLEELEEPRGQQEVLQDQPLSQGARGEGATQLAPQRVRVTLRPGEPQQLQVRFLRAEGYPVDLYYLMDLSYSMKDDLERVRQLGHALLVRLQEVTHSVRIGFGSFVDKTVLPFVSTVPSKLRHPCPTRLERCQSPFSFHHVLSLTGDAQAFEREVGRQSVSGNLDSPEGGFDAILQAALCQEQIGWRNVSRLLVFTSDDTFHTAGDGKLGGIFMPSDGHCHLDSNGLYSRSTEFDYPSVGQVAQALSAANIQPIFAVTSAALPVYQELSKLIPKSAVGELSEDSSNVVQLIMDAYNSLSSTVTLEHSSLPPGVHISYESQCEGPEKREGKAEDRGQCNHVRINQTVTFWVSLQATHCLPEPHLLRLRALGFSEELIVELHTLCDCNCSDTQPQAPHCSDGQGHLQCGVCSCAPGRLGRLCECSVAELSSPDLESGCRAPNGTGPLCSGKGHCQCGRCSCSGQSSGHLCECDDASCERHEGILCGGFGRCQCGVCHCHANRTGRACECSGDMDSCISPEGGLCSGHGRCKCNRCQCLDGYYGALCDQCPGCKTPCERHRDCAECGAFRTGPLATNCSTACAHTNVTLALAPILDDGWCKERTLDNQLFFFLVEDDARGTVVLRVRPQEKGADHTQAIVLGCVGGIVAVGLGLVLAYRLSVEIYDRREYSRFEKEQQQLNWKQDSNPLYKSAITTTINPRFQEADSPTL
- testSummary: VCAM antagonistic activity (VCAM-1/α4β7 binding assay), RPMI-8866 cell adhesion
- appliedConditions: recombinant human VCAM-1, 4 mM MnCl2, read-out: VCAM/α 4 β 7 antagonistic activity to integrin (IC50)
Could you please report measured IC50 for the items listed next?

Input O=C(O)[C@H](Cc1ccc(OCc2c(Cl)cccc2Cl)cc1)NC(=O)[C@H]1CC[C@H](C(=O)NNc2ccccc2)CC1 [Example 3] . Output IC50: ≤ 200 nM

Input O=C(O)[C@H](Cc1ccc(OCc2c(Cl)cccc2Cl)cc1)NC(=O)[C@H]1CC[C@H](C(=O)NCc2ccccc2)CC1 [Example 6] . Output IC50: 1000 to 5000 nM

Input O=C(Nc1ccc(C[C@H](NC(=O)[C@H]2CC[C@H](C(=O)O)CC2)C(=O)O)cc1)c1snnc1-c1ccccc1 [Example 45] . Output IC50: ≤ 200 nM

Input COc1cccc(NNC(=O)[C@H]2CC[C@H](C(=O)N[C@@H](Cc3ccc(OCc4c(Cl)cccc4Cl)cc3)C(=O)O)CC2)c1 [Example 44] . Output IC50: ≤ 200 nM

Input O=C(O)[C@H](Cc1ccc(OCc2c(Cl)cccc2Cl)cc1)NC(=O)[C@H]1CC[C@H](C(=O)NNc2ccc(Br)cc2)CC1 [Example 4] . Output IC50: 200 to 1000 nM

Input COc1cccc(OC)c1-c1ccc(C[C@H](NC(=O)[C@H]2CC[C@H](C(=O)O)CC2)C(=O)O)cc1 [Example 50] . Output IC50: ≤ 200 nM
